- target_or_system: peroxidase PEO-301 (Toyobo Co., Ltd.) (Armoracia rusticana)
- Construct: purchased Toyobo Co., Ltd. PEO-301
- experimental_protocol: Acceleration of hydrogen peroxide detection reaction mediated by peroxidase, using a small amount of peroxidase (Example 2)
- Type: biochemical
- setup_conditions: ΔA divided by ΔA100%; 7.5 minutes after mixing second reagent with first reagent-B (2.5 minutes after addition of sample); 0.013 U/ml peroxidase; 0.48% (w/v) compound in second reagent; 37° C.
property_label: Degree of progression of reaction (%) after 7.5 minutes
// return numeric value only (unit: %, not printed)

Record excerpt, results attached:
# compound, observed_result
measured = [
    ("COc1cc(N=Nc2cccc(S(=O)(=O)[O-])c2)ccc1NC(=O)Nc1ccc(N=Nc2ccc(O)c(C(=O)[O-])c2)cc1.[Na+].[Na+]", 64),
    ("O=C([O-])C1=NN(c2ccc(S(=O)(=O)[O-])cc2)C(=O)C1N=Nc1ccc(S(=O)(=O)[O-])cc1.[Na+].[Na+].[Na+] (centres unmarked) [Tartrazine, reference compound]", 57),
    ("Oc1ccc(N=Nc2ccccc2)cc1", 69),
    ("O=C([O-])c1cc(N=Nc2cccc([N+](=O)[O-])c2)ccc1O.[Na+]", 64),
]

# value lookup — system peroxidase PEO-301 (Toyobo Co., Ltd.) (Armoracia rusticana), readout Degree of progression of reaction (%) after 7.5 minutes, item "O=C(O)c1cc2ccccc2c(N=Nc2c(O)cc(S(=O)(=O)O)c3ccccc23)c1O" 61

* * *

Entries and their Degree of progression of reaction (%) after 10 minutes values follow.
- target_or_system: peroxidase PEO-301 (Toyobo Co., Ltd.) (Armoracia rusticana)
- Construct: purchased Toyobo Co., Ltd. PEO-301
- experimental_protocol: Acceleration of hydrogen peroxide detection reaction mediated by peroxidase, using a small amount of peroxidase (Example 2)
- Type: biochemical
- setup_conditions: ΔA divided by ΔA100%; 10 minutes after mixing second reagent with first reagent-B (5 minutes after addition of sample); 0.013 U/ml peroxidase; 0.48% (w/v) compound in second reagent; 37° C.
Lab book: enter the figure in %, no units written.

What measured Degree of progression of reaction (%) after 10 minutes goes with O=C([O-])C1=NN(c2ccc(S(=O)(=O)[O-])cc2)C(=O)C1N=Nc1ccc(S(=O)(=O)[O-])cc1.[Na+].[Na+].[Na+] (centres unmarked) [Tartrazine, reference compound] ? 85

State the recorded Degree of progression of reaction (%) after 10 minutes for this entry: "Oc1ccc(N=Nc2ccccc2)cc1" 90

* * *

- target_or_system: peroxidase PEO-301 (Toyobo Co., Ltd.) (Armoracia rusticana, UniProt P00433)
- Construct: purchased Toyobo Co., Ltd. PEO-301
- experimental_protocol: Hydrogen peroxide detection reaction mediated by peroxidase, completed using an excess of peroxidase (Example 1)
- Format: biochemical
- setup_conditions: ΔA of A694/751, 9 minutes after mixing second reagent with first reagent-A; 0.067 U/ml peroxidase; 0.48% (w/v) compound in second reagent; 0.00012% (w/v) hydrogen peroxide; DA-67; pH 6.5; 37° C.
- Description: In this Example the amount of change in absorbance was determined when hydrogen peroxide detection reaction was completed using an excess of peroxidase. […] 8 μl of the second reagent was added to 96 μl of the first reagent-A, and the mixture was incubated at 37° C. for 5 minutes. Then, 24 μl of the sample was added thereto, and the quantitative reaction of hydrogen peroxide was allowed to progress at 37° C. for 5 minutes. […]
property_label: ΔA9 min
Provide a numeric answer; units are not to be included.

Worked examples, 3 compounds total:
# compound, target_or_system, ΔA9 min
records = [
    ("O=C([O-])c1cc(N=Nc2cccc([N+](=O)[O-])c2)ccc1O.[Na+] [Alizarin Yellow GG]", "peroxidase PEO-301 (Toyobo Co., Ltd.) (Armoracia rusticana, UniProt P00433)", 0.170),
    ("O=C([O-])C1=NN(c2ccc(S(=O)(=O)[O-])cc2)C(=O)C1N=Nc1ccc(S(=O)(=O)[O-])cc1.[Na+].[Na+].[Na+] (centres unmarked) [Tartrazine, reference compound]", "peroxidase PEO-301 (Toyobo Co., Ltd.) (Armoracia rusticana, UniProt P00433)", 0.344),
    ("COc1cc(N=Nc2cccc(S(=O)(=O)[O-])c2)ccc1NC(=O)Nc1ccc(N=Nc2ccc(O)c(C(=O)[O-])c2)cc1.[Na+].[Na+] [Direct Yellow 44]", "peroxidase PEO-301 (Toyobo Co., Ltd.) (Armoracia rusticana, UniProt P00433)", 0.228),
]

Look up ΔA9 min: Oc1ccc(N=Nc2ccccc2)cc1 [4-(Phenylazo)phenol, 4-(phenylazo)phenol] 0.122

Request the reported ΔA9 min associated with "O=C(O)c1cc2ccccc2c(N=Nc2c(O)cc(S(=O)(=O)O)c3ccccc23)c1O" 0.084

* * *

- target_or_system: peroxidase PEO-301 (Toyobo Co., Ltd.) (Armoracia rusticana, UniProt P00433)
- Construct: purchased Toyobo Co., Ltd. PEO-301
- experimental_protocol: Hydrogen peroxide detection reaction mediated by peroxidase, completed using an excess of peroxidase (Example 1)
- Type: biochemical
- setup_conditions: ΔA of A694/751, 10 minutes after mixing second reagent with first reagent-A (defined as ΔA100%); 0.067 U/ml peroxidase; 0.48% (w/v) compound in second reagent; 0.00012% (w/v) hydrogen peroxide; DA-67; pH 6.5; 37° C.
Readings of ΔA10 min for the listed molecules

In the examples that follow, each entry is paired with its recorded ΔA10 min.
# molecule, ΔA10 min
records = [
    ("O=C([O-])C1=NN(c2ccc(S(=O)(=O)[O-])cc2)C(=O)C1N=Nc1ccc(S(=O)(=O)[O-])cc1.[Na+].[Na+].[Na+] (centres unmarked) [Tartrazine, reference compound]", 0.344),
    ("O=C(O)c1cc2ccccc2c(N=Nc2c(O)cc(S(=O)(=O)O)c3ccccc23)c1O", 0.085),
    ("COc1cc(N=Nc2cccc(S(=O)(=O)[O-])c2)ccc1NC(=O)Nc1ccc(N=Nc2ccc(O)c(C(=O)[O-])c2)cc1.[Na+].[Na+]", 0.228),
    ("O=C([O-])c1cc(N=Nc2cccc([N+](=O)[O-])c2)ccc1O.[Na+]", 0.170),
]

Turning now to a further record.
# get_value(readout='ΔA10 min', item= "Oc1ccc(N=Nc2ccccc2)cc1" ) 0.122

* * *

- target_or_system: peroxidase PEO-301 (Toyobo Co., Ltd.) (Armoracia rusticana)
- Construct: purchased Toyobo Co., Ltd. PEO-301
- Sequence (P00433 31-338): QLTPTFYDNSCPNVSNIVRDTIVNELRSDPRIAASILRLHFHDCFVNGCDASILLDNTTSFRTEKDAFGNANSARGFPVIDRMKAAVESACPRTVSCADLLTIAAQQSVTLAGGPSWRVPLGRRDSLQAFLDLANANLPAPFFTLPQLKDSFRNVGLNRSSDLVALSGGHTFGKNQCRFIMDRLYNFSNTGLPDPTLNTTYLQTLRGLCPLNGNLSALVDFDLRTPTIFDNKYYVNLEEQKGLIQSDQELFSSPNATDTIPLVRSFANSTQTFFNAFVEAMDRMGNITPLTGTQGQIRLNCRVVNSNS
- experimental_protocol: Acceleration of hydrogen peroxide detection reaction mediated by peroxidase, using a small amount of peroxidase (Example 2)
- Assay type: biochemical
- setup_conditions: ΔA divided by ΔA100%; 10 minutes after mixing second reagent with first reagent-B (5 minutes after addition of sample); 0.013 U/ml peroxidase; 0.48% (w/v) compound in second reagent; 37° C.
- Description: Next, in this Example, the degree of acceleration of hydrogen peroxide detection reaction by the compound of the present invention was determined using a small amount of peroxidase. […] 8 μl of the second reagent was added to 96 μl of the first reagent-B, and the mixture was incubated at 37° C. for 5 minutes. Then, 24 μl of the sample was added thereto, and the quantitative reaction of hydrogen peroxide was allowed to progress at 37° C. for 5 minutes. […]
property_label: Degree of progression of reaction (%) after 10 minutes

Sample answers from the record:
# compound, target_or_system, observed_result
measured = [
    ("O=C(O)c1cc2ccccc2c(N=Nc2c(O)cc(S(=O)(=O)O)c3ccccc23)c1O", "peroxidase PEO-301 (Toyobo Co., Ltd.) (Armoracia rusticana)", "90%"),
    ("COc1cc(N=Nc2cccc(S(=O)(=O)[O-])c2)ccc1NC(=O)Nc1ccc(N=Nc2ccc(O)c(C(=O)[O-])c2)cc1.[Na+].[Na+] [Direct Yellow 44]", "peroxidase PEO-301 (Toyobo Co., Ltd.) (Armoracia rusticana)", "89%"),
]

Please find the next compound below.
Entry under review: O=C([O-])c1cc(N=Nc2cccc([N+](=O)[O-])c2)ccc1O.[Na+] [Alizarin Yellow GG] . Reported Degree of progression of reaction (%) after 10 minutes? 89%

Cited source for all entries: patent US11208675B2
